tested on: iNOS activity in human primary airway epithelial cells; assay: Nitrite in media of cytokine-treated human primary airway epithelial cells; assay type: cell-based; conditions: 50 ng/ml IL-1β, TNF-α and IFN-γ (cytomix), 24 h; FIG. 1; read-out: IC50 for inhibition of the increase in nitrite in the media
pIC50: −log10 of the molar value.
measured.parameter: pIC50

stdin: Consider the compound shown here: CC(=N)NCCCC[C@H](N)C(=O)O [L-NIL] What is its recorded pIC50?
stdout: ~5.24

====

# pIC50 per record follows
tested on: nitrite production in human cartilage explants; assay: Human cartilage explant assay (nitrite production after IL-1β); format: cell-based; details: Homo sapiens; inhibition of nitrite production, IL-1β-stimulated explants
Counter-ions that a name gives are not always drawn.
Units for pIC50: none; it is -log10 of a concentration expressed in mol/L.

Worked set:
# compound, number
records = [
    ("CC(=N)NC/C=C\\CC[C@](C)(N)C(=O)O.Cl.Cl [Example LL, Dihydrochloride]", 6.10),
    ("CC(=N)NCC(F)=CCC[C@H](N)C(=O)O (mixture of isomers) [Example B, Dihydrochloride]", 6.70),
    ("CC(=N)NC/C(F)=C\\CC[C@H](N)C(=O)O [Example A, dihydrochloride, monohydrate]", 7.00),
    ("CC(=N)NC/C(F)=C/CC[C@H](N)C(=O)O [Example D, trihydrochloride, dihydrate]", 5.60),
]

Field: next compound
stdin: Field: pIC50 (nitrite production in human cartilage explants). Entry: CC(=N)NC/C(F)=C\CC[C@](C)(N)C(=O)O [Example HH, Dihydrochloride]
stdout: 6.40
